- System: SGK;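 note: KINOMEscan kinase panel screen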
- condition_label: concentration: 1 μM, replicates: in singlicate; n = 1
observable: %Inh (%)
Give bare numbers, in %.

Use the examples below as a reference point.
molecule="CNc1nccc(-c2ccc3c(N)n[nH]c3c2)n1 [GSK2206003]" unit_symbol=% measured_result=36
molecule="c1ccc(Oc2ccc(Nc3ccnc4cc(-c5ccc(CN6CCCCC6)o5)ccc34)cc2)nc1 [GW567143]" unit_symbol=% measured_result=0
molecule="O=C(O)C(F)(F)F.O=c1[nH]ccc2nc(N[C@@H]3CCNC3)nc(Nc3ccc4c(c3)S(=O)(=O)CC4)c12 [GSK2181306]" unit_symbol=% measured_result=97.2

// each listed molecule needs a value for %Inh
1. Cc1ccc(NC(=O)c2ccnc(N3CCCCC3)c2)cc1-c1ccc(C(=O)NCC2CC2)cc1 [GW775610]
2. O=C(Nc1n[nH]c2nc(-c3ccccc3)ccc12)C1CC1 [SB-708999]

Found:
1: 0; 2: 23

// each listed molecule needs a value for %Inh
1. O=C(O)C(F)(F)F.O=c1[nH]ccc2nc(N[C@@H]3CCNC3)nc(Nc3cc(Cl)cc(Cl)c3)c12 [GSK2188764]
2. CCn1cnc2c(NCc3ccccc3)ncnc21 [SKF-96418]
3. CN(C)CCNS(=O)(=O)c1ccc(-c2ccnc3[nH]ccc23)cc1 [GSK977620]
4. Cc1ccc(O)cc1Nc1ccnc2ccc(C(C)(C)C)cc12 [GW856805]
5. NCCC(NC(=O)c1cc(Br)c(-c2ccnc3[nH]ccc23)s1)c1ccccc1.O=C(O)C(F)(F)F.O=C(O)C(F)(F)F (stereo not drawn) [GSK1307810]

Found:
[99.9, 2, 4, 25, 78]
